All values here come from patent US20170166631A1.

Examples of binders with documented pEC50 follow.
Target: GST-HttExon1Q21 (recombinant huntingtin exon 1 protein with 21 polyQ repeats fused to an N-terminal GST tag) (;human, UniProt P08515 1-218 = GST; P42858 1-88)
Sequence (P08515 1-218, tags or fused parts left off): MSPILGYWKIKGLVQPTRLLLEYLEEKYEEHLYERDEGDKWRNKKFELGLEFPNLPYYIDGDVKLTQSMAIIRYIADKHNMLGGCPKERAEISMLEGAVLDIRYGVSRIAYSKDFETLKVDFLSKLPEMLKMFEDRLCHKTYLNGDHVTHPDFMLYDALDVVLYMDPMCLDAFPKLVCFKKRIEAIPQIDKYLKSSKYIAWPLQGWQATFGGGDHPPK
Assay: ELISA
In simple prose, pEC50 is minus the logarithm base ten of a concentration in moles per litre.

Examples with their reported pEC50 follow.
NI-302.3D8 (antibody, V domains shown) VH: EVQLVQSGGGLVQPGGSLRLSCEASGFIFKTYAMSWVRQLPGRGLEWVSAISATGGSTFYAESVKGRLTISRDTAKNTVYLQMNNLRAEDTAMYYCAKGSTAVYLFDSWGQGTLVTVSS VL: DIQMTQSPSSLSASVGDRVTLTCRASQDIRNFLAWIQQKPGKPPKSLIYAASTLQSGVPSRFSGSGSGTDFTLTISSLHPEDFATYYCQQFYNYPPTFGQGTKVEIK | 10.30
NI-302.55D8 (antibody, V domains shown) VH: QVQLVQSGSEVKKPGASVKVSCKASGYTFTDYYIHWVRQAPGQGLEWMGRINPNNGGTNYAQNFQGWVTMTRDTSISTAYMELSRLRSDDTAVYYCARVGGELLREGGYHYYMDVWGKGTTVTVSS VL: QSVLTQPPSVSGAPGQRVTISCTGNSSNIGAGYDVHWYQQLPGTAPKLLIFDNTNRPSGVPDRFSGSKSGTSASLAITGLQAEDEANYHCQSYDNSLSGSWVFGGGTKLTVL | 9.70

Here's the next entry for you.
Measured pEC50, NI-302.11A4 (antibody, V domains shown) VH: EVQLVESGGGLIQPGGSLRLSCAASGFPVSSSYMSWVRQAPGEGLEWVSVLYRDGDTYYADSVQGRFTISRDNSQNTFYLQMNSLKAEDTAVYYCAGDRRSSHYYYGMDVWGQGTTVTVSS VL: EIVMTQSPGTLSLSPGERATLSCRASQSVSSSYFAWYQQKPGQAPRLLIYGTSRRATAIPDRFSGSGSGTDFTLTISRLEPEDFAVYYCQQYGSSWTFGPGTKVEIK : 8.85
